test: Cytotoxicity against human HL60/ADR cells after 72 hrs by MTT assay; type: functional, cell-based
pIC50: −log10 of the molar value.
Measured Property: pIC50

1. C=C1C(=O)O[C@@H]2[C@@H]3[C@@H](CCC34CC4)C3(CC[C@@H]12)CC3: 5.17
2. COc1cccc2c1C(=O)c1c(O)c3c(c(O)c1C2=O)C[C@@](O)(C(=O)CO)C[C@@H]3O[C@H]1C[C@H](N)[C@H](O)[C@H](C)O1.Cl [DOXORUBICIN HYDROCHLORIDE]: 5.31
3. C=C1CC[C@H]2C(=C)CC[C@H]3C(=C)C(=O)O[C@@H]3[C@@H]12 [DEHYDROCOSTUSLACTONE]: 5.29
